Known CDK7/CDK12 of a selection of compounds
target: Human CDK12 wt/CycK (Homo sapiens (Human), UniProt Q9NYV4); assay: Radiometric protein kinase assay (33PanQinase Activity Assay), CDK12; format: biochemical; conditions: Table 1; ratio greater than 1 indicated selectivity for CDK12
Sequence (Q9NYV4 whole entry): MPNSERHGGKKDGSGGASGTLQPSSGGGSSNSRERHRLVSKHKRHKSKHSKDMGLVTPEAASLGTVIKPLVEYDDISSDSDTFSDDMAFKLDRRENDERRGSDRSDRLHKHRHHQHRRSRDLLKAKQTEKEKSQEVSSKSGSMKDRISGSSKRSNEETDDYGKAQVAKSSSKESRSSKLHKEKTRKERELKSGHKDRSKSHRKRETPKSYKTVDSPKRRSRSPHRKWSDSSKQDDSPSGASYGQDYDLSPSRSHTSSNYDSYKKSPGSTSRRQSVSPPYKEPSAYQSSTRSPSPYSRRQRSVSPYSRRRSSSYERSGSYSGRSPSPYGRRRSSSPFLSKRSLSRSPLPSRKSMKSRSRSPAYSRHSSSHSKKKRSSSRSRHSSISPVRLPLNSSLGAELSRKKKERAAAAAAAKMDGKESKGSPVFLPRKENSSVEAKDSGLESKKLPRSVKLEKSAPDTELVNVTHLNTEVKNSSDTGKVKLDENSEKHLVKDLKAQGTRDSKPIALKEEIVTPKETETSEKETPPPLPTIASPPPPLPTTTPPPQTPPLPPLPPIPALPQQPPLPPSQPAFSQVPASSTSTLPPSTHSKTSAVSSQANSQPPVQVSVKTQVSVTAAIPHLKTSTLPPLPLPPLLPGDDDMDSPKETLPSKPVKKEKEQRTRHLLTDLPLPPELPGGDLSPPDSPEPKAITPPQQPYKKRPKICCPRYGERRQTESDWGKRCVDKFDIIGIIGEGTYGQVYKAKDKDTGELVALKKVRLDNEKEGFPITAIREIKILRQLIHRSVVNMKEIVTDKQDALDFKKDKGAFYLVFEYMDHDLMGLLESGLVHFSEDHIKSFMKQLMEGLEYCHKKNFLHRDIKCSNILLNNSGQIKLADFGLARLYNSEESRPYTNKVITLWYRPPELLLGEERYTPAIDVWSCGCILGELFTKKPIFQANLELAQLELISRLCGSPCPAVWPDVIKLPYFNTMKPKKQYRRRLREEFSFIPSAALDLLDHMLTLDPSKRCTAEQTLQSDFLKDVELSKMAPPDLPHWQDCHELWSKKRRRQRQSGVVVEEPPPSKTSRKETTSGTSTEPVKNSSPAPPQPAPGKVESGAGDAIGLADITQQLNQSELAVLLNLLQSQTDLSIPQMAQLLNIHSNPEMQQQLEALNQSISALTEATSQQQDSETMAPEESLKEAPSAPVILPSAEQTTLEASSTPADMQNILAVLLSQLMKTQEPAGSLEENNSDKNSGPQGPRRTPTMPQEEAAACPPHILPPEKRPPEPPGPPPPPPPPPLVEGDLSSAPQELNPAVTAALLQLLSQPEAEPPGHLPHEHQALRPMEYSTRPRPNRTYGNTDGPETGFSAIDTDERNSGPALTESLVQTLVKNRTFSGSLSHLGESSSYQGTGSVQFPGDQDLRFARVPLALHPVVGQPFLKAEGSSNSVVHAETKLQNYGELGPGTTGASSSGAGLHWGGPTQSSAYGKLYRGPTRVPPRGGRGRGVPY
Sequence (O75909 whole entry partner): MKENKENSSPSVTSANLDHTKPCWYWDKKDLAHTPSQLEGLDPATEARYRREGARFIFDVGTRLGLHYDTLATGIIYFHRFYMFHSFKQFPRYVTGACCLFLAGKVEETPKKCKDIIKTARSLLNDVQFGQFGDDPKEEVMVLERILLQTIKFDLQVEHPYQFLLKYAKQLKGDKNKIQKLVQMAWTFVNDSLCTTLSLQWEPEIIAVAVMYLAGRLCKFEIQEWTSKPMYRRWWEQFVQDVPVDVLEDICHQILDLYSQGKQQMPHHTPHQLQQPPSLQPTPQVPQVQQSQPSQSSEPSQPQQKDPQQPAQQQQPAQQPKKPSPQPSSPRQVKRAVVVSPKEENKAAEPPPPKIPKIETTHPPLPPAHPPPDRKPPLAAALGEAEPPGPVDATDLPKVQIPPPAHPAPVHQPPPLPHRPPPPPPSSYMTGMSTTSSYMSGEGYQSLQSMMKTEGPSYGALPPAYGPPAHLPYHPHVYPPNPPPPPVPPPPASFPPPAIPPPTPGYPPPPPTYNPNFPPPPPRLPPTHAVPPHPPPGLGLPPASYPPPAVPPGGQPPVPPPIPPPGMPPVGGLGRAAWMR

| recordSmiles | CDK7/CDK12 |
| --- | --- |
| CC(C)Oc1cccc2nc(CNc3cc(NC[C@H]4CCNC[C@@H]4O)nc4c(C5CC5)cnn34)cn12 | 14.1 |
| Cc1cccn2cc(CNc3cc(NC[C@H]4CCNC[C@@H]4O)nc4c(C(C)C)cnn34)nc12 | 5.90 |
| CC(C)c1cnn2c(NCc3cn4cc(F)ccc4n3)cc(NC[C@H]3CCNC[C@@H]3O)nc12 | 5.1 |
| O[C@H]1CNCC[C@@H]1CNc1cc(NCc2cn3ccc(C(F)(F)F)cc3n2)n2ncc(C3CC3)c2n1 | 29.3 |
| Cc1cccc2ncc(CNc3cc(NC[C@H]4CCNC[C@@H]4O)nc4c(C(C)C)cnn34)n12 | 11.5 |
| O[C@H]1CNCC[C@@H]1CNc1cc(NCc2cn3nc(C4CC4)ccc3n2)n2ncc(C3CC3)c2n1 | 1.8 |
| CC(C)c1cnn2c(NCc3cc4ccccc4o3)cc(NC[C@H]3CCNC[C@@H]3O)nc12 | 0.2 |
